The reported numbers originate from patent US20220395553A1.

Parameter Percent Inhibition of CXCR4/CXCL12 Binding (400 nM peptide): see the listing below.
# Target: T1, SNAP tagged-CXC4 receptor labeled with terbium (Tag-lite CXCR4 cells, HEK293) (UniProt P61073 1-352, SNAP tag labeled with terbium fluorescent dye)
# T1 construct: whole, on cells; Bought frozen cells (PerkinElmer-CisBio), HEK293 transiently expressing the receptor; also called terbium labeled CXCR receptor
# T1 sequence (P61073 whole entry): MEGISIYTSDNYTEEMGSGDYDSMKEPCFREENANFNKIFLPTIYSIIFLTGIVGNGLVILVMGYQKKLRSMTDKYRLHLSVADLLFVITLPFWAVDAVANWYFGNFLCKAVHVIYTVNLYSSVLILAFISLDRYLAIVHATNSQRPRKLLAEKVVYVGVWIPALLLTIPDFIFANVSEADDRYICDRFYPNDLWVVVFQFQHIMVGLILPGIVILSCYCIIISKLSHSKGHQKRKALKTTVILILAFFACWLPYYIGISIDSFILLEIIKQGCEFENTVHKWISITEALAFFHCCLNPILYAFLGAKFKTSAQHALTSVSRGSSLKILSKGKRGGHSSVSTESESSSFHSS
# Test Protocol: HTRF competition on Tag-lite CXCR4 HEK293 cells; competitor labelled CXCL12
Square brackets hold non-standard residues; d marks the D form. Ends that are not written are not given here.
Assay Endpoint: Percent Inhibition of CXCR4/CXCL12 Binding (400 nM peptide) (%)

binder="LRRYHHSVRSSL [SEQ ID NO: 28]" result_number=12
binder="LERYNHSVRSSLRPYTK [SEQ ID NO: 42]" result_number=32
binder="LERYHHSVRSSLRPY [SEQ ID NO: 19]" result_number=44
binder="[dA]RRYHHSVRSSLRPYTK [SEQ ID NO: 33]" result_number=77
binder="LERYHHTVRSSLRPYTK [SEQ ID NO: 39]" result_number=87
binder="LRRYHHSVRSTLRPYTK [SEQ ID NO: 71]" result_number=29
binder="HSVRSSLRPYTK [SEQ ID NO: 14]" result_number=-15
binder="LERYHHSVRSSLRPYT [SEQ ID NO: 18]" result_number=57
binder="RYHHSVRSSLRPYTK [SEQ ID NO: 11]" result_number=-9
binder="LRRYHHSVRSSLRPYT [SEQ ID NO: 24]" result_number=8
binder="LRRYHHSVRSSLRPFTK [SEQ ID NO: 59]" result_number=-3
binder="LRRYHHS[dA]RSSLEPYTK [SEQ ID NO: 65]" result_number=-5
binder="LRRYHHSVRTSLRPYTK [SEQ ID NO: 70]" result_number=11
binder="LERFHHS[dA]RSSLRPYTK [SEQ ID NO: 55]" result_number=56
binder="LERYHHSVRSSLRP [SEQ ID NO: 20]" result_number=37
